tested-target: LINE1 reverse transcriptase (Homo sapiens)
Construct: expressed in transfected cells; host or cells: HeLa Tet-On 3G (Takara, cat no 631183)
Sequence (O00370 whole entry, looked up): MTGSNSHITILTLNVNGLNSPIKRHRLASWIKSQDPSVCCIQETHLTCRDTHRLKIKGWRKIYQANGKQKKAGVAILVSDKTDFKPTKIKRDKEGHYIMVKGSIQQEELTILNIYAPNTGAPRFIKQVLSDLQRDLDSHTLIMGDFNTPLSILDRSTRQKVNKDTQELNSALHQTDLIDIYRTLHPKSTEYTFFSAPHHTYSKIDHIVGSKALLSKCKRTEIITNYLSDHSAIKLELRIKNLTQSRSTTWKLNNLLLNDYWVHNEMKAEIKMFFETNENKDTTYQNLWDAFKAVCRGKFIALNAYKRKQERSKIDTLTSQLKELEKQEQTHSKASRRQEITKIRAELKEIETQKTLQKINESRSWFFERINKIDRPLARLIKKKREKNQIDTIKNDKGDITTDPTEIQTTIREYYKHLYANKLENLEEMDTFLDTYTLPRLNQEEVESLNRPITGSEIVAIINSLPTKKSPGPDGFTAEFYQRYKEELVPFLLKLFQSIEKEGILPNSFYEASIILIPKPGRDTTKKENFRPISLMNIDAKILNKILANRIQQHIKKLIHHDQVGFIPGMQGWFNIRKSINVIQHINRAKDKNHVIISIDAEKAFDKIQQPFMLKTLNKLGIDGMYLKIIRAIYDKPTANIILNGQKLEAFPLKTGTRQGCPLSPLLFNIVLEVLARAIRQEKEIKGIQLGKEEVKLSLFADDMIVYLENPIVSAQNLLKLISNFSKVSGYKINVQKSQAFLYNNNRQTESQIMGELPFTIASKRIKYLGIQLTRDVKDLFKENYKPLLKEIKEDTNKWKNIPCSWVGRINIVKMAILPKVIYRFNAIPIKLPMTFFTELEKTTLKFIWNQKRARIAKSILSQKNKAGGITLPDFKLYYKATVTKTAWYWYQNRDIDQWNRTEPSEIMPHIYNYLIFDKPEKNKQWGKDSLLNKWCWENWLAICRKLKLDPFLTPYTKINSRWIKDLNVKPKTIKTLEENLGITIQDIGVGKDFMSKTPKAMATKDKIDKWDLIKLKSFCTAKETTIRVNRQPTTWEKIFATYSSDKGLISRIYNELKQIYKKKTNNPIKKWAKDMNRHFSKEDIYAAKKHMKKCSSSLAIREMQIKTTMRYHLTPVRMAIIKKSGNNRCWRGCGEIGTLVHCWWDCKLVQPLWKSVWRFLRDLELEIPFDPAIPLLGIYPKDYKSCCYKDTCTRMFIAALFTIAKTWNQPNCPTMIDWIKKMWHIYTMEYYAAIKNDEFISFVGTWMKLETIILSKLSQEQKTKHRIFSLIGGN
assay-protocol: Stable artificial-intron Cis LINE1 reporter assay (HeLa Tet-On 3G, Firefly luciferase)
Assay type: cell-based
condition-parameters: HeLa L1 artificial-intron reporter cells, doxycycline 500 ng/mL, 72 h, class symbols
pIC50: −log10 of the molar value.
Measured pIC50 by item

## Task Under LINE1 reverse transcriptase (Homo sapiens): pIC50 value of Nc1ccn([C@H]2C[C@H](O)[C@](CO)(CCl)O2)c(=O)n1 ?
## Result ≥ 7.30

## Task Under LINE1 reverse transcriptase (Homo sapiens): pIC50 value of [N-]=[N+]=N[C@]1(CO)O[C@@H](c2ccc3c(N)ncnn23)C[C@@H]1O ?
## Result ≥ 7.30

## Task Under LINE1 reverse transcriptase (Homo sapiens): pIC50 value of Nc1ccn([C@@H]2O[C@@](CO)(CCl)[C@@H](O)C2(F)F)c(=O)n1 ?
## Result 7.00 to 7.30

## Task Under LINE1 reverse transcriptase (Homo sapiens): pIC50 value of [N-]=[N+]=N[C@]1(CO)O[C@@H](n2ccc(N)nc2=O)[C@@H](F)[C@@H]1O ?
## Result ≥ 7.30

## Task Under LINE1 reverse transcriptase (Homo sapiens): pIC50 value of CC[C@]1(CO)O[C@@H](n2cc(F)c(N)nc2=O)[C@@H](O)[C@@H]1O ?
## Result 7.00 to 7.30

## Task Under LINE1 reverse transcriptase (Homo sapiens): pIC50 value of O=c1nc(NO)ccn1[C@H]1C[C@H](O)[C@](CO)(CCl)O1 ?
## Result 6.60 to 7.00

***
## Task Under LINE1 reverse transcriptase (Homo sapiens): pIC50 value of Nc1nc(=O)n([C@@H]2O[C@@](CO)(CCl)[C@@H](O)[C@@H]2Cl)cc1F ?
## Result 6.00 to 6.60

## Task Under LINE1 reverse transcriptase (Homo sapiens): pIC50 value of C=C[C@]1(CO)O[C@@H](n2ccc(N)nc2=O)[C@@H](F)[C@@H]1O ?
## Result ≥ 7.30

## Task Under LINE1 reverse transcriptase (Homo sapiens): pIC50 value of C#C[C@@H]1[C@H](n2ccc(N)nc2=O)O[C@](C)(CO)[C@H]1O ?
## Result < 6.00

## Task Under LINE1 reverse transcriptase (Homo sapiens): pIC50 value of C#C[C@]1(CO)O[C@@H](n2cc(F)c(N)nc2=O)C[C@@H]1O ?
## Result ≥ 7.30

## Task Under LINE1 reverse transcriptase (Homo sapiens): pIC50 value of Nc1ccn([C@@H]2O[C@@](CO)(CF)[C@@H](O)[C@@H]2F)c(=O)n1 ?
## Result 7.00 to 7.30

## Task Under LINE1 reverse transcriptase (Homo sapiens): pIC50 value of [N-]=[N+]=N[C@]1(CO)O[C@@H](c2cc(I)c3c(N)ncnn23)C[C@@H]1O ?
## Result 7.00 to 7.30

## Task Under LINE1 reverse transcriptase (Homo sapiens): pIC50 value of Cc1cn([C@@H]2O[C@@](CO)(CCl)[C@@H](O)[C@@H]2F)c(=O)[nH]c1=O ?
## Result < 6.00

## Task Under LINE1 reverse transcriptase (Homo sapiens): pIC50 value of Nc1nc(=O)n([C@@H]2O[C@](/C=C\Cl)(CO)[C@@H](O)[C@@H]2F)cc1F ?
## Result < 6.00

## Task Under LINE1 reverse transcriptase (Homo sapiens): pIC50 value of Nc1nc(F)nc2c1ncn2[C@@H]1O[C@@](CO)(CF)[C@@H](O)[C@@H]1F ?
## Result < 6.00

## Task Under LINE1 reverse transcriptase (Homo sapiens): pIC50 value of Nc1nc(F)nc2c1ncn2[C@H]1C[C@H](O)[C@](CO)(CCl)O1 ?
## Result 6.60 to 7.00

## Task Under LINE1 reverse transcriptase (Homo sapiens): pIC50 value of CO[C@]1(CO)O[C@@H](n2ccc(N)nc2=O)C[C@@H]1O ?
## Result 7.00 to 7.30
